Assign IC50 to each entry below.
Test Target: UniProt:Q5JUK3
Test Name: FLIPR Tl/K Flux Assay
Stated Conditions: HEK293 cells stably expressing human KCNT1; Tl+ flux stimulated with EC80 of agonist Loxapine

Could you share which IC50 value was measured for CCc1cc(C#N)cc(C(=O)N[C@H]2CCc3nn(-c4ccnc(C(F)(F)F)c4)cc32)c1 [Compound I-246a] ?
< 250 nM

State recorded IC50 for all listed compounds.
1. O=C(N[C@H]1CCCc2nc(-c3cc(C4CC4)ncc3F)oc21)c1cccc(OC(F)(F)F)c1 [Compound I-159a]
2. CCOc1cc(-n2cc3c(n2)CCCC3NC(=O)c2cc(C(F)(F)F)ccc2C)ccn1 (racemic)
3. Cn1nc(C2CC2)nc1C(=O)N[C@H]1CCCc2oc(-c3ccnc(C4CC4)c3)nc21 [Compound I-223a]

1. < 250 nM
2. 250 to 500 nM
3. < 250 nM

###

Test Target: human, KCNT1 (Homo sapiens (Human))
Sequence (Q5JUK3 whole entry): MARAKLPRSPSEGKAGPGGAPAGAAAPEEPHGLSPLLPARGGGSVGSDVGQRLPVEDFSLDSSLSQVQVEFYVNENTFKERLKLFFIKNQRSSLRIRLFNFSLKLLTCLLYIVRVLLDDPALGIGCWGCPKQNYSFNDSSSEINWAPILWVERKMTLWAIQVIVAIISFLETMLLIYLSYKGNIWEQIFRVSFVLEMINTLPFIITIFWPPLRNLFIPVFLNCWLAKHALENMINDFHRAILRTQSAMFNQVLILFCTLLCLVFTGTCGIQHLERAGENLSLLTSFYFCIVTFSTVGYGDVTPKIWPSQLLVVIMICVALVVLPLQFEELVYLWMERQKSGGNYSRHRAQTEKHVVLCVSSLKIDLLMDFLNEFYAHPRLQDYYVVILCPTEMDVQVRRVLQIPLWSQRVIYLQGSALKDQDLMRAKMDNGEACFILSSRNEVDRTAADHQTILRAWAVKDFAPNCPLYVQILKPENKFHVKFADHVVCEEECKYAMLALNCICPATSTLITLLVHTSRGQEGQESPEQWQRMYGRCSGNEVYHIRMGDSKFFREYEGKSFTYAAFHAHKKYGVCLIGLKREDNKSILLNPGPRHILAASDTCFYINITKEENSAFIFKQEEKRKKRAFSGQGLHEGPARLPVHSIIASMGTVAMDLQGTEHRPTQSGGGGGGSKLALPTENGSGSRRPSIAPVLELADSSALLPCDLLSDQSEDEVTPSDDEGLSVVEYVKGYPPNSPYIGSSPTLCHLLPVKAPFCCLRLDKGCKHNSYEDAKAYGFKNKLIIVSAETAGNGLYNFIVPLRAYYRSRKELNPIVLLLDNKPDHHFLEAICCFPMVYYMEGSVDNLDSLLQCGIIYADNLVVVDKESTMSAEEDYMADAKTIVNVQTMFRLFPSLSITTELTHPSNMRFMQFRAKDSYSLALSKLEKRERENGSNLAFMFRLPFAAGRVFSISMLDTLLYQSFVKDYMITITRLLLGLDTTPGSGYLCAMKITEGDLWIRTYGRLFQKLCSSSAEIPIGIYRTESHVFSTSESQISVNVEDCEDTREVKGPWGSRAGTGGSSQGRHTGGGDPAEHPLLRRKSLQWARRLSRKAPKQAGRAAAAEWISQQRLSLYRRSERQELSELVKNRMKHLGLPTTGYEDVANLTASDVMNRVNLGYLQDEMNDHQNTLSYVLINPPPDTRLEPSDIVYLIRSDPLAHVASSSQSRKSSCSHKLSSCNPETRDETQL
Test Name: FLIPR Tl/K Flux Assay
Stated Conditions: HEK293 cells stably expressing human KCNT1; Tl+ flux stimulated with EC80 of agonist Loxapine
Assay Metric: IC50

Check out these entries, answers already filled in.
Using the record for COc1cncc(C(=O)N[C@H]2CCn3nc(-c4ccnc(C(F)(F)F)c4)cc32)n1 [Compound I-207a] , report its IC50.
< 250 nM

So what does the record say about IC50 for COc1cc(-c2cc3n(n2)CC[C@H]3NC(=O)c2cc(C(F)(F)F)nn2C)ccn1 [Compound I-427b] ?
> 1000 nM

Which IC50 value is on record for COc1cc(-c2nc3c(o2)[C@H](NC(=O)c2cncc(C(F)(F)F)n2)CCC3)ccn1 [Compound I-512b] ?
> 1000 nM

GET /values?readout=IC50&item= Cn1nc(C(F)(F)F)nc1C(=O)N[C@H]1CCCn2nc(-c3cc(C(F)(F)F)ncc3F)cc21 [Compound I-203a]
< 250 nM

Fill blank: measured IC50 of the molecule COc1cc(F)cc(C(=O)N[C@H]2CCn3nc(-c4ccnc(C(F)(F)F)c4)cc32)c1 [Compound I-567a] is ____.
< 250 nM

IC50 for N#Cc1cc(F)cc(C(=O)N[C@@H]2CCCCn3nc(-c4ccnc(C5CC5)c4)cc32)c1 [Compound I-470b] ?
< 250 nM

Would you be so kind as to report IC50 for each listed record?
1. Cc1ccn2ncc(C(=O)N[C@H]3CCCn4nc(-c5ccnc(C(F)(F)F)c5)cc43)c2n1 [Compound I-440a]
2. O=C(N[C@H]1CCCn2nc(-c3cc(C(F)(F)F)ncc3F)cc21)c1cnc(C(F)(F)F)cn1 [Compound I-202a]

500 to 1000 nM
< 250 nM

Parameters: items (list). Returns: IC50 for each item.
1. Cn1nc(C(F)(F)F)nc1C(=O)N[C@H]1CCCc2oc(-c3ccnc(C4CC4)c3)nc21 [Compound I-229a]
2. Cn1nc(C(F)(F)F)cc1C(=O)N[C@H]1CCc2cnc(-c3ccnc(C(F)(F)F)c3)nc21 [Compound I-46a]

["< 250 nM", "250 to 500 nM"]

Each molecule below has a reported value. Please supply its IC50.
1. Cn1nc(C(F)(F)F)cc1C(=O)N[C@H]1CCCn2nc(-c3cnc(C(F)(F)F)s3)cc21 [Compound I-41a]
2. COc1cc(-c2cc3n(n2)CC[C@@H]3NC(=O)c2cc(C(F)(F)F)nn2C)c(C(F)(F)F)cn1 [Compound I-172a]
3. Cn1nc(C(F)(F)F)cc1C(=O)NC1CCc2nn(-c3ccnc(C(F)(F)F)c3)cc21 (racemic)
4. Cc1ccn(CC(=O)N[C@H]2CCCn3nc(-c4ccnc(C(F)(F)F)c4)cc32)n1 [Compound I-423a]
5. Cn1ncc(C(=O)N[C@H]2CCCn3nc(-c4ccnc(C(F)(F)F)c4)cc32)c1Cl [Compound I-407a]

["< 250 nM", "< 250 nM", "< 250 nM", "> 1000 nM", "250 to 500 nM"]
